Listing of entries alongside the reported TGI.
System: IGROV1 ovarian
Assay: NCI tumour cell line growth inhibition, 48 h

{"compound": "N#Cc1ccc(C(O)C(F)(F)c2nc3ccccc3o2)cc1 (stereo not given)", "targetEntity": "IGROV1 ovarian", "TGI": "> 100 µM"}

Would you mind telling me what TGI value was observed for `COc1ccc(N=c2oc3ccccc3cc2C(N)=O)cc1` ? > 100 µM

Would you mind telling me what TGI value was observed for CC1Cc2c(Cl)ncnc2N(C)c2ccc(Cl)cc21 (stereo not given) ? > 100 µM

Would you mind telling me what TGI value was observed for `COc1ccc(CNc2cnc3cc(N)ccc3n2)cc1` ? > 100 µM

Would you mind telling me what TGI value was observed for CC(=O)NC1C(OC(C)C(=O)NC(C)C(=O)NC(CCC(=O)NCCCCCNc2ccc([N+](=O)[O-])c3[nH]c4ccccc4c(=O)c23)C(N)=O)C(O)C(CO)OC1(C)OCc1ccccc1 (stereo not given) ? > 100 µM

Would you mind telling me what TGI value was observed for `c1ccc2c(CSCc3cccc4ccccc34)cccc2c1` ? > 100 µM

Would you mind telling me what TGI value was observed for `CC(=O)Nc1ccc2c(c1)/C(=C\c1ccc([N+](C)(C)C)cc1)c1ccccc1-2` ? > 100 µM

Would you mind telling me what TGI value was observed for `Cc1ccc(O)c(C(c2cccc(C(c3cc(C)ccc3O)c3cc(C)ccc3O)c2)c2cc(C)ccc2O)c1` ? 3.02 µM

Would you mind telling me what TGI value was observed for NC1N=C(c2ccc(Cl)cc2)C2=C(N1)c1ccccc1CC2 (stereo not given) ? > 57.1 µM

Would you mind telling me what TGI value was observed for C=CCC1(CN(C)C)CC/C(=C\c2ccc(OC)cc2)C1=O (stereo not given) ? > 100 µM

====

Test system: SK-MEL-2 melanoma
Test: NCI tumour cell line growth inhibition, 48 h
measurementName: log10 TGI (log10 of the value in µM)
Scale: log10; quantity: TGI; unit before log: µM

{"compound": "CCCCCCCCCCCCCCCC1=NCC[N+]1(CCO)CCO", "log10 TGI": 1.01}
{"compound": "CCOC(=O)Cc1c(C)c2cc(C(=O)c3ccccc3)c(O)cc2oc1=O", "log10 TGI": 1.60}
{"compound": "COc1ccc(C(=O)C(CN(C)C)CN(C)C)cc1", "log10 TGI": 1.57}
{"compound": "CC(=O)O[C@@H]1C2CCC3C(CC[C@@]4(C)C3CC[C@@H]4C(C)N(C)C)[C@@]2(C)CC[C@@H]1NC(=O)C=C(C)C (stereo not given in full)", "log10 TGI": 0.84}
{"compound": "Cc1ccc(O)c(C(c2cccc(C(c3cc(C)ccc3O)c3cc(C)ccc3O)c2)c2cc(C)ccc2O)c1", "log10 TGI": 0.66}

Would you mind telling me what log10 TGI value was observed for `COc1ccc2c(c1)C(=O)c1c-2n(CCCN(C)C)c(=O)c2ccccc12` ? 0.86

Would you mind telling me what log10 TGI value was observed for COc1ccc2c3c1OC1C(F)C=CC4(O)C(C2)NCCC314 (stereo not given) ? 0.82

Would you mind telling me what log10 TGI value was observed for `O=c1oc2ccc(I)cc2c(=O)n1-c1ccc(Br)cc1F` ? 0.36

Would you mind telling me what log10 TGI value was observed for NC1N=C(c2ccc(Cl)cc2)C2=C(N1)c1ccccc1CC2 (stereo not given) ? 1.67

====

Test system: OVCAR-3 ovarian
Assay: NCI tumour cell line growth inhibition, 48 h
Listing of entries alongside the reported TGI.

Guide cases for TGI, answers given:
{"compound": "COc1cc2c(c(OC)c1OC)-c1ccc(OC)c(=O)cc1C(NC(=O)COc1ccccc1)CC2 (stereo not drawn)", "recordedValue": "< 0.0355 µM"}
{"compound": "O=C(O)c1cc(-c2ccc3cc4c(cc3c2)OCO4)nc2ccccc12", "recordedValue": "> 100 µM"}
{"compound": "Cc1cnc2ccc(C)c([N+](=O)[O-])c2c1NCCCN(C)C", "recordedValue": "> 100 µM"}
{"compound": "COc1ccccc1Nc1cc(O)c2c(=O)cc(-c3ccccc3)oc2c1", "recordedValue": "5.2 µM"}

Now for another entry.
Would you mind telling me what TGI value was observed for C/C=C(\C)c1cc(=O)c2c(C)cc3c(c2o1)C(=O)c1c(O)c(C2CC(C)(N(C)C)C(OC(C)=O)C(C)O2)cc(C2CC(N(C)C)C(O)C(C)O2)c1C3=O (stereo not drawn) ? > 21 µM

====

Tested on: RPMI-8226 leukemia
Assay: NCI tumour cell line growth inhibition, 48 h
Lab note: compare TGI against 40 µM. Equal or greater, write Criterion met. Smaller, write Criterion not met.

As a guide, the following entries are already answered.
{"compound": "Cc1ccc(CC(Cc2ccccc2C)C(=O)O)c(C(=O)O)c1 (stereo not given)", "targetEntity": "RPMI-8226 leukemia", "classAssignment": "Criterion met"}
{"compound": "Cc1ccc(C)n1-c1ccccc1C1C=Cn2c(=O)nnc3c(OC(C)C)c(OC(C)C)c(O)c1c32 (stereo not given)", "targetEntity": "RPMI-8226 leukemia", "classAssignment": "Criterion met"}
{"compound": "COC(=O)[C@]12CC3C=CC1N(C3)C(CBr)c1c2n(S(=O)(=O)c2ccccc2)c2ccccc12 (stereo not given in full)", "targetEntity": "RPMI-8226 leukemia", "classAssignment": "Criterion not met"}
{"compound": "CCCCc1ccc(N=C(N)N)cc1", "targetEntity": "RPMI-8226 leukemia", "classAssignment": "Criterion met"}
{"compound": "CCOCCOCCOCc1nc(C#N)c(N)o1", "targetEntity": "RPMI-8226 leukemia", "classAssignment": "Criterion met"}

For this compound, is measured TGI 40 µM or higher? COc1cc2c(cc1OC)OC(c1c(OC)ccc(OC)c1O)CC2 (stereo not given) Criterion met

====

Test system: KM12 colon
Assay: NCI tumour cell line growth inhibition, 48 h
Listing of entries alongside the reported TGI.

Guide cases for TGI, answers given:
{"molecule": "Cc1c(C)c2ccc3oc4ccccc4c3c2oc1=O", "targetEntity": "KM12 colon", "TGI": "> 100 µM"}
{"molecule": "CC(C)(C)C1=CC(=C(P(=O)(O)O)P(=O)(O)O)C=C(C(C)(C)C)C1=O", "targetEntity": "KM12 colon", "TGI": "> 50 µM"}
{"molecule": "Oc1c(Cl)cc(Cl)c(Cl)c1CNCCNCc1c(O)c(Cl)cc(Cl)c1Cl", "targetEntity": "KM12 colon", "TGI": "8 µM"}

Would you mind telling me what TGI value was observed for COC1/C=C(C)/C=C/C(C)/C=C/C(=O)OC(/C(C)=C/C=C(\C)CNC(=O)[C@H](CO)NC=O)C(C)/C=C/C=C/C(OC)CC/C=C(C)/C=C/C1 (stereo not given in full) ? > 1 µM

Would you mind telling me what TGI value was observed for `Cc1cc(NC2=CC(=O)C(=O)c3ccccc32)no1` ? 29.7 µM

====

Listing of entries alongside the reported TGI.
System: T-47D breast
Assay: NCI tumour cell line growth inhibition, 48 h

Guide cases for TGI, answers given:
{"compound": "CN[C@H]1CN(c2ccc3c(=O)c(C(=O)O)cn(-c4nccs4)c3n2)C[C@@H]1OC", "recordedValue": "7.76 µM"}
{"compound": "N#CC12C(=O)N3C(=NC(c4ccco4)NC3c3ccco3)C1(C#N)C(c1ccco1)NC1=C2CCCC1 (stereo not given)", "recordedValue": "> 100 µM"}
{"compound": "COc1ccc(C2(Cl)c3ccccc3N(c3ccccc3)c3ccccc32)cc1", "recordedValue": "5.38 µM"}
{"compound": "O=c1oc2ccc(I)cc2c(=O)n1-c1ccc(Br)cc1F", "recordedValue": "6.7 µM"}
{"compound": "Cc1c(C)c2ccc(OCC(O)COC(C)C)c(C)c2oc1=O (stereo not given)", "recordedValue": "> 100 µM"}

Now for another entry.
Would you mind telling me what TGI value was observed for `O=C(Nc1ccccc1)c1cc(S(=O)(=O)Nc2n[nH]c(=O)n2-c2ccccc2)c(S)cc1Cl` ? > 100 µM

====

Listing of entries alongside the reported TGI.
System: KM12 colon
Test: NCI tumour cell line growth inhibition, 48 h

Guide cases for TGI, answers given:
{"compound": "O=C1C=C(Nc2ccc(Cl)cc2Cl)c2ccccc2C1=O", "measurementName": "TGI", "recordedValue": "> 100 µM"}
{"compound": "FC1(F)[Se]C2C3CCC(C3)C2C1(F)F (centres undefined)", "measurementName": "TGI", "recordedValue": "> 100 µM"}
{"compound": "Cc1cc2nc(NCCN)n(Cc3ccc(F)c(Cl)c3)c2cc1C", "measurementName": "TGI", "recordedValue": "18.6 µM"}
{"compound": "Cc1cnc2n1S(=O)(=O)c1cc(C(=O)Nc3cccc4nsnc34)c(Cl)cc1S2", "measurementName": "TGI", "recordedValue": "33.4 µM"}
{"compound": "CC1=NN(c2cccc(Cl)c2)C2(SCC(=O)N2c2nc3ccccc3s2)C1=CC=Cc1ccccc1 (centres undefined)", "measurementName": "TGI", "recordedValue": "> 100 µM"}
{"compound": "Cc1ccc(C)n1-c1ccccc1C1C=Cn2c(=O)nnc3c(OC(C)C)c(OC(C)C)c(O)c1c32 (centres undefined)", "measurementName": "TGI", "recordedValue": "> 100 µM"}
{"compound": "C[C@@H]1C[C@H]2[C@@H]3CCC4=CC(=O)C=C[C@]4(C)[C@@]3(F)[C@@H](O)C[C@]2(C)[C@@]1(O)C(=O)CO", "measurementName": "TGI", "recordedValue": "> 100 µM"}
{"compound": "COC1CCC(OS(C)(=O)=O)C(CO)O1 (centres undefined)", "measurementName": "TGI", "recordedValue": "> 100 µM"}
{"compound": "COc1ccc(C(=O)C#Cc2cn(C3CC(O)C(CO)O3)c(=O)[nH]c2=O)cc1 (centres undefined)", "measurementName": "TGI", "recordedValue": "> 100 µM"}
{"compound": "COc1cc(C2C(Cl)C(=O)N2NC(=O)Cc2ccccc2)cc(Br)c1O (centres undefined)", "measurementName": "TGI", "recordedValue": "> 100 µM"}

Would you mind telling me what TGI value was observed for `COc1ccc(Cc2c3cc(O)c(=O)cc-3ccn2C)cc1` ? > 100 µM

Would you mind telling me what TGI value was observed for `NS(=O)(=O)OC[C@H]1C[C@@H](Nc2ccnc3cc(-c4cccc(SC(F)(F)F)c4)nn23)[C@H](O)[C@@H]1O` ? 0.368 µM

Would you mind telling me what TGI value was observed for `COc1ccc2ncn(-c3cc(O[C@H](C)c4ccccc4C(F)(F)F)c(C(N)=O)s3)c2c1` ? 3.04 µM
